# target-of-assay: Htt-3 peptide (four prolines at a/d positions of the polyQ region)
# method-summary: ITC; 250 μM SERF1a in syringe injected into 50 μM Htt-3 or NT17 in the cell; 10 mM PB pH 7.4, 26 °C, 1.5 μl injections
measurement-type: Kd (nM)
# unit: nM | format: bare number

Request: Need Kd, item Human SERF1a (small EDRK-rich factor 1a), short form (natural protein, UniProt O75920-2 1-62, looked up, Small EDRK-rich factor 1a, human, short form of 62 residues (the long form has 110); full-length cDNA amplified by PCR from GenBank BC021174; 15N-labelled (M9 minimal medium) for the NMR titration; also called rSERF1a; recombinant SERF1a; source: E. coli BL21(DE3), purified (Ni-Sepharose, thrombin cleavage, Mono-S); not shown: His-tag, N-terminal, cleaved) MARGNQRELARQKNMKKTQEISKGKRKEDSLTASQRKQRDSEIMQEKQKAANEKKSMQTREK
Response: 332

Sourced from paper PMC10361993
